Just for reference, ChEMBL document CHEMBL2169881 is where these values come from.

# tested system: Tyrosine-protein phosphatase non-receptor type 6 (Homo sapiens) (UniProt P29350)
# Sequence (P29350 whole entry): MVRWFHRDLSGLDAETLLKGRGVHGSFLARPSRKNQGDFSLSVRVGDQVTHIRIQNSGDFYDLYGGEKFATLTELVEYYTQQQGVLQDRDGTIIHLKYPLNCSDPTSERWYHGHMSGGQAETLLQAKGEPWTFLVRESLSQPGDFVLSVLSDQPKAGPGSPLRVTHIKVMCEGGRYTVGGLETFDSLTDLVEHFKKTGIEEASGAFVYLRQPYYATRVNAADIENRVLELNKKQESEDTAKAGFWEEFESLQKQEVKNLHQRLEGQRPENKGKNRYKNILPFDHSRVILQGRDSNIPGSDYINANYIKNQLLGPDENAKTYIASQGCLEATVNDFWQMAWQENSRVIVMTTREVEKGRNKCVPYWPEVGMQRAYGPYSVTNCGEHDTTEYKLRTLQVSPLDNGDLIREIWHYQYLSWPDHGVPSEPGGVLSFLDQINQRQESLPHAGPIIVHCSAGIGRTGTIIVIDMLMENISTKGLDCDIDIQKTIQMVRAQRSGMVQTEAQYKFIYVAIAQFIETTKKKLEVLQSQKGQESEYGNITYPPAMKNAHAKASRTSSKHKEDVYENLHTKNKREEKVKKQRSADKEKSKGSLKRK
# method description: Agonist activity at SHP1 in human PLC5 cells assessed as decrease in pSTAT3-mediated Mcl1 level at 10 uM after 12 hrs by Western blot analysis
# Format: functional, cell-based
Calls of active or inactive are those of the source. The calls are words filed in the database; no cut-off is given here.
Labels: active, inactive

molecular string: COC1=CC(c2cc3cc(Br)ccc3[nH]2)=N/C1=C\c1ccc[nH]1
group label: active
//
molecular string: COC1=CC(c2cc3ccccc3[nH]2)=N/C1=C\c1ccc[nH]1
group label: active
//
molecular string: COC1=CC(c2cc3ccccc3[nH]2)=N/C1=C\c1ccc(-c2cc3ccccc3[nH]2)[nH]1
group label: active
//
molecular string: COC1=CC(c2ccco2)=N/C1=C\c1ccc[nH]1
group label: inactive

----------
# tested system: Tyrosine-protein phosphatase non-receptor type 6 (Homo sapiens)
# method description: Agonist activity at SHP1 in human PLC5 cells assessed as inhibition of STAT3 Y705 phosphorylation at 10 uM after 12 hrs by Western blot analysis
# Format: functional, cell-based
The source made the active and inactive calls. The rule behind the calls is not given here.
Labels: active, inactive

molecular string: COC1=CC(c2ccco2)=N/C1=C\c1ccc[nH]1
group label: inactive
--
molecular string: COC1=CC(c2cc3ccccc3[nH]2)=N/C1=C\c1ccc(-c2cc3ccccc3[nH]2)[nH]1
group label: active
--
molecular string: COC1=CC(c2cc3cc(Br)ccc3[nH]2)=N/C1=C\c1ccc[nH]1
group label: active
--
molecular string: COC1=CC(c2cc3ccccc3[nH]2)=N/C1=C\c1ccc[nH]1
group label: active

----------
# tested system: Tyrosine-protein phosphatase non-receptor type 6 (Homo sapiens)
# method description: Agonist activity at SHP1 in human PLC5 cells assessed as decrease in pSTAT3-mediated survivin level at 10 uM after 12 hrs by Western blot analysis
# Assay type: functional, cell-based
Activity calls are given as the source filed them. No cut-off for these calls is given here.
Labels: true for active, false for inactive

molecular string: COC1=CC(c2ccco2)=N/C1=C\c1ccc[nH]1
group label: false
--
molecular string: COC1=CC(c2cc3ccccc3[nH]2)=N/C1=C\c1ccc[nH]1
group label: true
--
molecular string: COC1=CC(c2cc3cc(Br)ccc3[nH]2)=N/C1=C\c1ccc[nH]1
group label: true
--
molecular string: COC1=CC(c2cc3ccccc3[nH]2)=N/C1=C\c1ccc(-c2cc3ccccc3[nH]2)[nH]1
group label: true

----------
# tested system: Tyrosine-protein phosphatase non-receptor type 6 (Homo sapiens) (UniProt P29350)
# method description: Agonist activity at SHP1 in human PLC5 cells assessed as increase in SHP1 level at 10 uM after 12 hrs by Western blot analysis
# Assay type: functional, cell-based
Calls of active or inactive are those of the source. The calls are words filed in the database; no cut-off is given here.
Labels: active, inactive

molecular string: COC1=CC(c2cc3cc(Br)ccc3[nH]2)=N/C1=C\c1ccc[nH]1
tested system: Tyrosine-protein phosphatase non-receptor type 6 (Homo sapiens) (UniProt P29350)
group label: active

molecular string: COC1=CC(c2ccco2)=N/C1=C\c1ccc[nH]1
tested system: Tyrosine-protein phosphatase non-receptor type 6 (Homo sapiens) (UniProt P29350)
group label: inactive

molecular string: COC1=CC(c2cc3ccccc3[nH]2)=N/C1=C\c1ccc(-c2cc3ccccc3[nH]2)[nH]1
tested system: Tyrosine-protein phosphatase non-receptor type 6 (Homo sapiens) (UniProt P29350)
group label: active

molecular string: COC1=CC(c2cc3ccccc3[nH]2)=N/C1=C\c1ccc[nH]1
tested system: Tyrosine-protein phosphatase non-receptor type 6 (Homo sapiens) (UniProt P29350)
group label: active
